Sourced from paper PMC10397247

- assay-target: T1, O8-bN
- T1 chain: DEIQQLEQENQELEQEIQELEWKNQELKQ
- test-description: two-hybrid library CCNG1;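 further: natural log of median RNA to DNA barcode read ratio; higher means stronger binding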
property-measured: interaction score

1. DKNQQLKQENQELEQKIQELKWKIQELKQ [O10-bN]
2. DKIQQLKQKNQELKQKIQELKWENQELEQ [O7-bN]
3. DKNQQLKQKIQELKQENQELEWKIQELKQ [O6-bN]
4. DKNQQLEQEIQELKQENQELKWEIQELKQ [4H3162-bN]
input: Ascending sort, interaction score. Form entry: ranked labels (order as requested).
output: 4, 3, 1, 2
(4: -3.16, 3: -0.754, 1: -0.514, 2: 0.737)
